- target.under.test: Human D1 Receptor (Homo sapiens (Human))
- Sequence (P21728 whole entry): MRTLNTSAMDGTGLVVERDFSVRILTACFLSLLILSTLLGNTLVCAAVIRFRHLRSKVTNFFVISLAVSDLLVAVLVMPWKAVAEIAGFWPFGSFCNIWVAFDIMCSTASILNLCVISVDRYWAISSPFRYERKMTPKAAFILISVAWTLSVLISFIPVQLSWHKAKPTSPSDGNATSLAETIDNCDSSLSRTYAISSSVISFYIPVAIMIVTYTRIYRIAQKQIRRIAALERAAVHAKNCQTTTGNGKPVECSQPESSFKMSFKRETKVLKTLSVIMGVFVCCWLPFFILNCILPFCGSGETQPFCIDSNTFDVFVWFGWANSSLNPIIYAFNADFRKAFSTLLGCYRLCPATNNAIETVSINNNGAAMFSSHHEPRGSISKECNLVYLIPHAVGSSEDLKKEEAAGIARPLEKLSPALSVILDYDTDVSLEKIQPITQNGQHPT
- measurement.protocol: Human D1 receptor binding assay ([^3H]-SCH23390 competition)
- experimental.conditions: competition with 0.5 nM [^3H]-SCH23390, over-expressing LTK human cell lines, 30 min at 37° C.; values marked ^a are from a single determination; read-out: Human D1 Receptor Binding, Ki (nM); Geometric mean of 2-4 determinations (unless otherwise indicated)
endpoint.name: Ki (nM)

compound	unit	reported
Cc1cc(Oc2nccc3sncc23)ccc1-c1c(C)n[nH]c(=O)c1C [Example 10]	nM	32.7

* * *

We begin with a simple list: items and their reported Ki.
- target.under.test: Human D1 Receptor (Homo sapiens (Human))
- measurement.protocol: Human D1 receptor binding assay ([^3H]-SCH23390 competition)
- experimental.conditions: read-out: Human D1 Receptor Binding, Ki (nM); Geometric mean of 2-4 determinations (unless otherwise indicated)
endpoint.name: Ki (nM)

molecule	target.under.test	reported
Cc1cc(Oc2ncnc3occc23)ccc1-c1c(C)ncnc1C [Example 1]	Human D1 Receptor (Homo sapiens (Human))	166
Cc1cc(Oc2nccc3[nH]cnc23)ccc1-c1c(C)ncc2nccn12 [Example 2]	Human D1 Receptor (Homo sapiens (Human))	374

Each recorded value in this set is attributed to patent US9868744B2.
